- subject.of.test: K-Ras G12C (Homo sapiens (Human), UniProt P01116+P62937, G12C)
- Sequence (P01116-2 other isoform, or with tags, fused parts or gaps G12C): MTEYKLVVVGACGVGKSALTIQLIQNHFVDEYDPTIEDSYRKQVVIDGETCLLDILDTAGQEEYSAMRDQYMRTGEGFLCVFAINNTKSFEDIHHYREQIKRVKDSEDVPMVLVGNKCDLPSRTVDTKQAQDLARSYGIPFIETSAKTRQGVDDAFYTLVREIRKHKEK
- Sequence (P62937 whole entry): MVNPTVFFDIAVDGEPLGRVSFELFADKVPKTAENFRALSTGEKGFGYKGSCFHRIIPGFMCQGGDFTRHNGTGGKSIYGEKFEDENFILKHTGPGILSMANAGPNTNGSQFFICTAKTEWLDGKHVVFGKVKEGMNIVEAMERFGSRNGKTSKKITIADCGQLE
- assay.name: Ras-Raf (BRAF RBD) disruption / FRET / MOA assay, KRAS G12C
- Type: biochemical
- reported.conditions: KRAS G12C; Ras-Raf disruption/FRET/MOA assay; read-out: IC50* KRAS G12C FRET data
pIC50: −log10 of the molar value.
readout.label: pIC50

C=CC(=O)N1CC[C@](C#N)(C(=O)N(C)[C@H](C(=O)N[C@H]2Cc3cccc(c3)-c3ccc4c(c3)c(c(-c3cccnc3[C@H](C)OC)n4CC)CC(C)(C)COC(=O)[C@@H]3CCCN(N3)C2=O)C(C)C)C1 (atropisomer, axis not shown) = 7.00 to 8.00

Q: Give pIC50 for CCn1c(-c2cccnc2[C@H](C)OC)c2c3cc(ccc31)-c1csc(n1)C[C@H](NC(=O)C[C@@H](C)OC1CN(C(=O)C#CC(C)(C)N(C)C)C1)C(=O)N1CCC[C@H](N1)C(=O)OCC(C)(C)C2 (atropisomer, axis not shown)
Ans: > 8.00

Q: Give pIC50 for C=CS(=O)(=O)N1CC[C@H](C(=O)N(C)[C@H](C(=O)N[C@H]2Cc3cc(O)cc(c3)-c3ccc4c(c3)c(c(-c3cncnc3)n4CC)CC(C)(C)COC(=O)[C@@H]3CCCN(N3)C2=O)C(C)C)C1
Ans: 7.00 to 8.00

Q: Give pIC50 for C=CC(=O)N(C)[C@@H]1C[C@@H](C)N(C(=O)N(C)[C@H](C(=O)N[C@H]2Cc3nc(cs3)-c3ccc4c(c3)c(c(-c3cccnc3[C@H](C)OC)n4CC)CC(C)(C)COC(=O)[C@@H]3CCCN(N3)C2=O)C(C)C)C1 (atropisomer, axis not shown)
Ans: 7.00 to 8.00

Q: Give pIC50 for C=CC(=O)N1CC(OC[C@H](C(=O)N[C@H]2Cc3nc(cs3)-c3ccc4c(c3)c(c(-c3cccnc3[C@H](C)OC)n4CC)CC(C)(C)COC(=O)[C@@H]3CCCN(N3)C2=O)C(C)C)C1 (atropisomer, axis not shown)
Ans: 6.00 to 7.00

Q: Give pIC50 for CCn1c(-c2cccnc2[C@H](C)OC)c2c3cc(ccc31)-c1cc(O)cc(c1)C[C@H](NC(=O)[C@H](C(C)C)N(C)C(=O)[C@H]1CCN(C(=O)C#C[C@@H]3CCCN3C)C1)C(=O)N1CCC[C@H](N1)C(=O)OCC(C)(C)C2 (atropisomer, axis not shown)
Ans: > 8.00
